The origin of these recorded values is patent US12685735B2.

# assay-target: BRG-1 (Homo sapiens)
# experiment: ATPase catalytic activity assay of BRG-1 (ADP-Glo)
# Format: biochemical
# measurement-setup: ATPase catalytic activity, ADP-Glo; read-out: BRG1 IC50 (μM)*
Listed here are compounds together with their documented IC50.

Cc1cc(-c2cccc(-c3csc(NC(=O)CNC(=O)c4ccc5c(c4)[C@@](C)(CO)CC5)n3)n2)ncn1: 0.1 to 1 µM
C[C@@H]1CN(c2cccc(-c3csc(NC(=O)CNC(=O)c4ccc5c(c4)CCCCO5)n3)n2)C[C@H](C)O1: 0.1 to 1 µM
Cc1cc(-c2cccc(-c3csc(NC(=O)CNC(=O)c4ccc(C)c(C(C)(C)CN)c4)n3)n2)ncn1: 0.1 to 1 µM

Noted for C[C@@H]1CN(c2cccc(-c3csc(NC(=O)CNC(=O)c4ccc5c(c4)C(C)(C#N)CNC5)n3)c2)C[C@H](C)O1 (stereo in doubt) [Compound 287] : its IC50 reads < 0.1 µM

Noted for "C[C@@]1(C#N)COCc2ccc(C(=O)NCC(=O)Nc3nc(-c4cccc([C@H]5CC5(F)F)c4)cs3)cc21" : its IC50 reads 0.1 to 1 µM

Noted for "C[Si](C)(C)c1cccc(C(=O)NCC(=O)Nc2nc(-c3cccc(-c4ccncc4)c3)cs2)c1" : its IC50 reads 1 to 5 µM

Noted for "CC(C)(/C(N)=N\O)c1cccc(C(=O)NCC(=O)Nc2nc(-c3cccc(-c4ccncc4)c3)cs2)c1" : its IC50 reads > 5 µM

Noted for "C[C@@H]1CN(c2cccc(-c3csc(NC(=O)CNC(=O)c4cnc5c(c4)[C@@](C)(CO)CC5)n3)c2)C[C@H](C)O1" : its IC50 reads 0.1 to 1 µM

Noted for "C[C@@]1(F)COCc2ccc(C(=O)NCC(=O)Nc3nc(-c4cccc(N5CCC5)c4)cs3)cc21" : its IC50 reads < 0.1 µM

###

# assay-target: BRG-1 (Homo sapiens)
# experiment: ATPase catalytic activity assay of BRG-1 (ADP-Glo)
# Type: biochemical
# measurement-setup: ATPase catalytic activity, ADP-Glo; read-out: BRG1 Max % Inhibition
readout-kind: Emax

Record excerpt, results attached:
C[C@@H]1CN(c2cccc(-c3csc(NC(=O)CNC(=O)c4ccc5c(c4)C(C)(CO)COC5)n3)c2)C[C@H](C)O1 (stereo in doubt) [Compound 372]: > 95%
Cc1cnc(O)c(-c2cccc(-c3csc(NC(=O)CNC(=O)c4ccc5c(c4)[C@](C)(CO)CC5)n3)n2)c1: > 40%
C[C@@H]1CN(c2cccc(-c3csc(NC(=O)CNC(=O)c4cccc([C@@H]5COC[C@H]5O)c4)n3)c2)C[C@H](C)O1: > 30%

Noted for "C[C@@H](N)C(C)(C)c1cccc(C(=O)NCC(=O)Nc2nc(-c3cccc(-c4ccncc4)c3)cs2)c1" : its Emax reads > 50%

Noted for COCC(NC(=O)c1ccc2c(c1)[C@](C)(F)COC2)C(=O)Nc1nc(-c2cccc(C(F)F)c2)cs1 (stereo in doubt) : its Emax reads > 95%

Noted for "Cc1ccc(C(=O)NCC(=O)Nc2nc(-c3cccc(-c4ccn(C)n4)c3)cs2)cc1C(C)(C)CN" : its Emax reads > 50%

###

# assay-target: BRG-1 (Homo sapiens, UniProt P51532)
# Sequence (P51532 whole entry): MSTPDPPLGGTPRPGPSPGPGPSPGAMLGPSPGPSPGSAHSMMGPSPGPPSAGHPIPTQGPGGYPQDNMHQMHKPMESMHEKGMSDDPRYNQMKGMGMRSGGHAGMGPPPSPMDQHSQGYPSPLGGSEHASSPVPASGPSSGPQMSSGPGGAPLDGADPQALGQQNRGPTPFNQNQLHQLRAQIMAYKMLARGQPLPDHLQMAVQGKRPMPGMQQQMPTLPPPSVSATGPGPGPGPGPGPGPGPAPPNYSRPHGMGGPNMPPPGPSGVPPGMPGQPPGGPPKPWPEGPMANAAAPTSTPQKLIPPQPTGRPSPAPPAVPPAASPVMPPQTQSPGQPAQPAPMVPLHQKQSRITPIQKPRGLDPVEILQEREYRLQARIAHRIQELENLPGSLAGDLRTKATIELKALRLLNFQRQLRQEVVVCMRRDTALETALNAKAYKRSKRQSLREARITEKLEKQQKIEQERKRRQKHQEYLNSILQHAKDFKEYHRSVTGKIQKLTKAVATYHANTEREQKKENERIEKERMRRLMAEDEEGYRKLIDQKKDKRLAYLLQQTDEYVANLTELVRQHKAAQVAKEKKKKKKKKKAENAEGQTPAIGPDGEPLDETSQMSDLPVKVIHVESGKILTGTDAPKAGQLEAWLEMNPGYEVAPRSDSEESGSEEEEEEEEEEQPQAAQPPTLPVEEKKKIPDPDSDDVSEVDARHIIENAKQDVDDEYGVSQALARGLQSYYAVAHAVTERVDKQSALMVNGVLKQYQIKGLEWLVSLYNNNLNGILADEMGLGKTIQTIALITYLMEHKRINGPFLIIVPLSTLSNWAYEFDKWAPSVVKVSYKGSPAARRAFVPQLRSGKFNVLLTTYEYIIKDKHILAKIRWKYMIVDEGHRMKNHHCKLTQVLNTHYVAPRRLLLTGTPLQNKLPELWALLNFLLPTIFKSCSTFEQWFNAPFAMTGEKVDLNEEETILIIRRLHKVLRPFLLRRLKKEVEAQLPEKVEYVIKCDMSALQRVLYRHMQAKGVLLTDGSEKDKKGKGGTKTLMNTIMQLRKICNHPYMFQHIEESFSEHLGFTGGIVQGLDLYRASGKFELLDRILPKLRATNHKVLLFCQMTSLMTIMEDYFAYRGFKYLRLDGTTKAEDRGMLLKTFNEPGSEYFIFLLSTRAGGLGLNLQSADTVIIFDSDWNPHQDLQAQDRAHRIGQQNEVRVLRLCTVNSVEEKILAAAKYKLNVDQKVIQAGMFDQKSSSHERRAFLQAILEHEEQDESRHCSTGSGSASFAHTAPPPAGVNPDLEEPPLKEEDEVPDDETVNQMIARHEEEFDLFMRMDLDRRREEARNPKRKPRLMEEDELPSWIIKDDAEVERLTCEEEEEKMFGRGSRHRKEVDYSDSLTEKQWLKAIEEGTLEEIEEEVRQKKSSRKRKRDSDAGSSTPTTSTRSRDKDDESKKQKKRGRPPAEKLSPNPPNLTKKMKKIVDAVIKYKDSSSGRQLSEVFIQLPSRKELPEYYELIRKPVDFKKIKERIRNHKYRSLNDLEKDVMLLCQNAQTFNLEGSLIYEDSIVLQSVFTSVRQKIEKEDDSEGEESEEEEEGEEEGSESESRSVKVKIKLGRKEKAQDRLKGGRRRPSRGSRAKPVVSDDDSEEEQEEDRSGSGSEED
# experiment: ATPase catalytic activity assay of BRG-1 (ADP-Glo)
# Format: biochemical
# measurement-setup: ATPase catalytic activity, ADP-Glo
readout-kind: BRG1 Max % Inhibition

Record excerpt, results attached:
CC(C(F)(F)F)S(=O)(=O)c1cccc(C(=O)NCC(=O)Nc2nc(-c3cccc(-c4ccncc4)c3)cs2)c1 (stereo not shown): >50%
CC1(C#N)CCc2ccc(C(=O)NCC(=O)Nc3nc(-c4cccc(-c5ccncc5)c4)cs3)cc21 (single isomer, unassigned) [Compound 103]: >95%

Noted for "Cc1cc(-c2cccc(-c3csc(NC(=O)CNC(=O)c4cccc(C(C)(C)CO)c4)n3)c2)nc(C)n1" : its BRG1 Max % Inhibition reads >95%

Noted for "Cc1nccc(-c2cccc(-c3csc(NC(=O)CNC(=O)c4cccc(C(C)(C)CN)c4)n3)c2)n1" : its BRG1 Max % Inhibition reads >95%

###

# assay-target: BRG-1 (Homo sapiens, UniProt P51532)
# experiment: ATPase catalytic activity assay of BRG-1 (ADP-Glo)
# Format: biochemical
# measurement-setup: ATPase catalytic activity, ADP-Glo; read-out: BRG1 Max % Inhibition
readout-kind: Emax

Record excerpt, results attached:
COc1cc(-c2cccc(-c3csc(NC(=O)CNC(=O)c4cccc(C(C)(C)CN)c4)n3)c2)ccn1 [Compound 49]: > 60%
C[C@@H]1CN(c2cccc(-c3csc(NC(=O)CNC(=O)c4cccc(C5(O)COC5)c4)n3)c2)C[C@H](C)O1 [Compound 184]: > 80%

Noted for CC(C)(CN)c1cccc(C(=O)NCC(=O)Nc2nc(-c3cccc(CO[C@H]4CC[C@H](O)CC4)c3)cs2)c1 [Compound 62] : its Emax reads > 40%

###

Listed here are compounds together with their documented BRM Max % Inhibition.
# assay-target: BRM (Homo sapiens)
# Sequence (P51531 whole entry): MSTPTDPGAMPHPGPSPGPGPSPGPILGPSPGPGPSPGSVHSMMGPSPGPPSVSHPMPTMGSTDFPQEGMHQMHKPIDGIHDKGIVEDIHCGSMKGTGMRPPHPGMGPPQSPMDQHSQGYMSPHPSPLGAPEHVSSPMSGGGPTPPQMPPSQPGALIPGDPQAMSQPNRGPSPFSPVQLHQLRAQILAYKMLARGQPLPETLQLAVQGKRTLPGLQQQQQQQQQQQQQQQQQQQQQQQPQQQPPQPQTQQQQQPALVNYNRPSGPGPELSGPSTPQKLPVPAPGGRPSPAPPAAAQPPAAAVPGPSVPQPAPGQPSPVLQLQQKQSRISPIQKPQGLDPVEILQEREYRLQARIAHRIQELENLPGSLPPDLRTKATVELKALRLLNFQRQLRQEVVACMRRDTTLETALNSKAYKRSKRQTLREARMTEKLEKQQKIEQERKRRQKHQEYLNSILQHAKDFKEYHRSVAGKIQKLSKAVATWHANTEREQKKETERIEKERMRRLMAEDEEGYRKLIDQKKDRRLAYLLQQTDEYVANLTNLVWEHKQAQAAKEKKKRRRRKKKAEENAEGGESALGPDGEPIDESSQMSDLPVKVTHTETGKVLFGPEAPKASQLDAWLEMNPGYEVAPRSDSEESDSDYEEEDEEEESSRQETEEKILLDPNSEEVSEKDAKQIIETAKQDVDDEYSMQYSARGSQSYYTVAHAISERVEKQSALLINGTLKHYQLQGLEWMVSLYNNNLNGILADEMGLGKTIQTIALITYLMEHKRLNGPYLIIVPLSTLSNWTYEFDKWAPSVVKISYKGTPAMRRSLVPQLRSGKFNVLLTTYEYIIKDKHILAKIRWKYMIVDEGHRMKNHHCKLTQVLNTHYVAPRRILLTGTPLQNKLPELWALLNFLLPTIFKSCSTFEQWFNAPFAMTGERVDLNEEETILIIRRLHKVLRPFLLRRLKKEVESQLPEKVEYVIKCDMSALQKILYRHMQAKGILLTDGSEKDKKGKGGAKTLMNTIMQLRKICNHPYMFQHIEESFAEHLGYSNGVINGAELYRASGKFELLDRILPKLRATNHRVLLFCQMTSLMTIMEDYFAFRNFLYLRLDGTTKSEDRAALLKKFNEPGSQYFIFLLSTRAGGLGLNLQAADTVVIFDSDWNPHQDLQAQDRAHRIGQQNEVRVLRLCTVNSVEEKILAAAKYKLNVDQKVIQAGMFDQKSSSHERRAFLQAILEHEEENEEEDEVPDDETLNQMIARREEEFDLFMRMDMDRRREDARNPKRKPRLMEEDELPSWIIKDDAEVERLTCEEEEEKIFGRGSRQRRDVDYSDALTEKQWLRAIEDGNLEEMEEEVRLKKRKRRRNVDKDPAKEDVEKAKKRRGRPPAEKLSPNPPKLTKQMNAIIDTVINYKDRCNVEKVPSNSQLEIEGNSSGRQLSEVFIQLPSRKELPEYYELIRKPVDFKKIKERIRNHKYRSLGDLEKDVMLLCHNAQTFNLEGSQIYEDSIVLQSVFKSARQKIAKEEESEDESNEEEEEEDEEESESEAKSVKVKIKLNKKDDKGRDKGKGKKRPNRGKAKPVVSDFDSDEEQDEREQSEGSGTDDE
# experiment: ATPase catalytic activity assay of BRM (ADP-Glo)
# Format: biochemical

Noted for C[C@@H]1CN(c2cccc(-c3csc(NC(=O)CNC(=O)c4ccc5c(c4)C(C)(C#N)OCC5)n3)n2)C[C@H](C)O1 (stereo partly drawn) : its BRM Max % Inhibition reads >90%

Noted for "Cc1nccc(-c2cccc(-c3csc(NC(=O)CNC(=O)c4cccc(C(C)(C)CO)c4)n3)n2)n1" : its BRM Max % Inhibition reads >95%

Noted for "C[C@@]1(C#N)COCc2ccc(C(=O)NCC(=O)Nc3nc(-c4cccc(N5CC(F)(F)C5)c4)cs3)cc21" : its BRM Max % Inhibition reads >95%

###

Listed here are molecules together with their documented BRG1 Max % Inhibition.
# assay-target: BRG-1 (Homo sapiens, UniProt P51532)
# experiment: ATPase catalytic activity assay of BRG-1 (ADP-Glo)
# Type: biochemical
# measurement-setup: ATPase catalytic activity, ADP-Glo

Record excerpt, results attached:
C[C@]1(CO)CCc2ccc(C(=O)NCC(=O)Nc3nc(-c4ccn5ccnc5c4)cs3)cc21 [Compound 259]: <30%
CC1(CO)CCc2ccc(C(=O)NCC(=O)Nc3nc(-c4cccc(-c5ccncc5)c4)cs3)cc21 (single isomer, unassigned) [Compound 107]: >70%
CC1(C#N)CCc2ccc(C(=O)NCC(=O)Nc3nc(-c4cccc(-c5ccncc5)c4)cs3)cc21 (single isomer, unassigned) [Compound 88]: >30%
CCC(C)(O)c1cccc(C(=O)NCC(=O)Nc2nc(-c3cccc(-c4ccncc4)c3)cs2)c1 (single isomer, unassigned) [Compound 81]: >70%

Noted for CN1CCc2ccc(-c3csc(NC(=O)CNC(=O)c4ccc5c(c4)[C@@](C)(CO)CC5)n3)cc2C1=O [Compound 258] : its BRG1 Max % Inhibition reads >60%

Noted for C[C@@]1(C#N)COCc2ccc(C(=O)NCC(=O)Nc3nc(-c4cccc(C5CCO5)c4)cs3)cc21 (stereo partly drawn) [Compound 365] : its BRG1 Max % Inhibition reads >95%

###

# assay-target: BRM (Homo sapiens)
# experiment: ATPase catalytic activity assay of BRM (ADP-Glo)
# Type: biochemical
# measurement-setup: read-out: BRM IC50 (μM)*
readout-kind: IC50

Record excerpt, results attached:
C[C@@H]1CN(c2cccc(-c3csc(NC(=O)CNC(=O)c4ccc5c(c4)[C@]4(CCC[C@H]4O)CC5)n3)c2)C[C@H](C)O1: 1 to 5 µM
COc1cccc(-c2csc(NC(=O)CNC(=O)c3ccc4c(c3)[C@](C)(F)CCOC4)n2)c1: 0.1 to 1 µM
C[C@@H]1CN(c2cccc(-c3csc(NC(=O)CNC(=O)c4ccc5c(c4)[C@@](C)(CO)CO5)n3)n2)C[C@H](C)O1 (single isomer, unassigned): 0.1 to 1 µM
Cn1ccc2ccc(-c3csc(NC(=O)CNC(=O)c4ccc5c(c4)[C@@](C)(CO)CC5)n3)cc2c1=O: 0.1 to 1 µM
C[C@H](N)C(C)(C)c1cccc(C(=O)NCC(=O)Nc2nc(-c3cccc(-c4ccncc4)c3)cs2)c1: 1 to 5 µM

Now for another entry.
Noted for "C[C@@H]1CN(c2cccc(-c3csc(NC(=O)CNC(=O)c4cccc(C5(CO)CC5)c4)n3)n2)C[C@H](C)O1" : its IC50 reads < 0.1 µM

###

# assay-target: BRM (Homo sapiens)
# experiment: ATPase catalytic activity assay of BRM (ADP-Glo)
# Format: biochemical
# measurement-setup: read-out: BRM IC50 (μM)*
Listed here are compounds together with their documented IC50.

CC(C)(CN)c1cccc(C(=O)NCC(=O)Nc2nc(-c3cccc(-c4cc(Cl)cc(Cl)c4)c3)cs2)c1 [Compound 51]: 0.1 to 1 µM

Noted for CC(C)S(=O)(=O)c1cccc(C(=O)NCC(=O)Nc2nc(-c3cccc(-c4ccnc(C(F)(F)F)c4)c3)cs2)c1 [Compound 19] : its IC50 reads 0.1 to 1 µM

Noted for Cn1ccc(-c2cccc(-c3csc(NC(=O)CNC(=O)c4ccc5c(c4)[C@](C)(CO)CC5)n3)n2)n1 [Compound 265] : its IC50 reads 1 to 5 µM

Noted for C[C@@H]1CN(c2cccc(-c3csc(NC(=O)CNC(=O)c4ccc5c(c4)[C@]4(COC5)CC4(F)F)n3)n2)C[C@H](C)O1 [Compound 411] : its IC50 reads 0.1 to 1 µM
